settings: in methanol, 298.15 K
parameter-measured: solubility (mole fraction)
Give the figure only, with no unit attached.

INPUT: Query: solubility (mole fraction); subject: CC(C)C[C@H](NC(=O)OCC1c2ccccc2-c2ccccc21)C(=O)O
OUTPUT: 0.0455

====

conditions: in isopropanol, 298.15 K
parameter-measured: solubility (mole fraction)
Give the figure only, with no unit attached.

INPUT: Query: solubility (mole fraction); subject: CC(C)C[C@H](NC(=O)OCC1c2ccccc2-c2ccccc21)C(=O)O
OUTPUT: 0.0272

====

conditions: in ethanol, 283.15 K
parameter-measured: solubility (mole fraction)
Give the figure only, with no unit attached.

INPUT: Query: solubility (mole fraction); subject: CC(C)C[C@H](NC(=O)OCC1c2ccccc2-c2ccccc21)C(=O)O
OUTPUT: 0.0256

====

conditions: in acetone, 298.15 K
parameter-measured: solubility (mole fraction)
Give the figure only, with no unit attached.

INPUT: Query: solubility (mole fraction); subject: CC(C)C[C@H](NC(=O)OCC1c2ccccc2-c2ccccc21)C(=O)O
OUTPUT: 0.0927

====

settings: in n-propanol, 323.15 K
parameter-measured: solubility (mole fraction)
Give the figure only, with no unit attached.

INPUT: Query: solubility (mole fraction); subject: CC(C)C[C@H](NC(=O)OCC1c2ccccc2-c2ccccc21)C(=O)O
OUTPUT: 0.0853

====

conditions: in acetone, 303.15 K
parameter-measured: solubility (mole fraction)
Give the figure only, with no unit attached.

INPUT: Query: solubility (mole fraction); subject: CC(C)C[C@H](NC(=O)OCC1c2ccccc2-c2ccccc21)C(=O)O
OUTPUT: 0.101

====

conditions: in methyl acetate, 318.15 K
parameter-measured: solubility (mole fraction)
Give the figure only, with no unit attached.

INPUT: Query: solubility (mole fraction); subject: CC(C)C[C@H](NC(=O)OCC1c2ccccc2-c2ccccc21)C(=O)O
OUTPUT: 0.063

====

conditions: in acetone, 288.15 K
parameter-measured: solubility (mole fraction)
Give the figure only, with no unit attached.

INPUT: Query: solubility (mole fraction); subject: CC(C)C[C@H](NC(=O)OCC1c2ccccc2-c2ccccc21)C(=O)O
OUTPUT: 0.0773

====

conditions: in methyl acetate, 323.15 K
parameter-measured: solubility (mole fraction)
Give the figure only, with no unit attached.

INPUT: Query: solubility (mole fraction); subject: CC(C)C[C@H](NC(=O)OCC1c2ccccc2-c2ccccc21)C(=O)O
OUTPUT: 0.0711

====

conditions: in isopropanol, 303.15 K
parameter-measured: solubility (mole fraction)
Give the figure only, with no unit attached.

INPUT: Query: solubility (mole fraction); subject: CC(C)C[C@H](NC(=O)OCC1c2ccccc2-c2ccccc21)C(=O)O
OUTPUT: 0.0352

====

settings: in ethyl acetate, 303.15 K
parameter-measured: solubility (mole fraction)
Give the figure only, with no unit attached.

INPUT: Query: solubility (mole fraction); subject: CC(C)C[C@H](NC(=O)OCC1c2ccccc2-c2ccccc21)C(=O)O
OUTPUT: 0.0692

====

details: in isopropanol, 318.15 K
parameter-measured: solubility (mole fraction)
Give the figure only, with no unit attached.

INPUT: Query: solubility (mole fraction); subject: CC(C)C[C@H](NC(=O)OCC1c2ccccc2-c2ccccc21)C(=O)O
OUTPUT: 0.0687

====

conditions: in n-butanol, 318.15 K
parameter-measured: solubility (mole fraction)

INPUT: Query: solubility (mole fraction); subject: CC(C)C[C@H](NC(=O)OCC1c2ccccc2-c2ccccc21)C(=O)O
OUTPUT: 0.0687

====

conditions: in acetonitrile, 293.15 K
parameter-measured: solubility (mole fraction)

INPUT: Query: solubility (mole fraction); subject: CC(C)C[C@H](NC(=O)OCC1c2ccccc2-c2ccccc21)C(=O)O
OUTPUT: 0.0047

====

details: in methanol, 293.15 K
parameter-measured: solubility (mole fraction)
Give the figure only, with no unit attached.

INPUT: Query: solubility (mole fraction); subject: CC(C)C[C@H](NC(=O)OCC1c2ccccc2-c2ccccc21)C(=O)O
OUTPUT: 0.0384

====

conditions: in ethyl acetate, 298.15 K
parameter-measured: solubility (mole fraction)
Give the figure only, with no unit attached.

INPUT: Query: solubility (mole fraction); subject: CC(C)C[C@H](NC(=O)OCC1c2ccccc2-c2ccccc21)C(=O)O
OUTPUT: 0.0607

====

conditions: in methyl acetate, 293.15 K
parameter-measured: solubility (mole fraction)
Give the figure only, with no unit attached.

INPUT: Query: solubility (mole fraction); subject: CC(C)C[C@H](NC(=O)OCC1c2ccccc2-c2ccccc21)C(=O)O
OUTPUT: 0.0318

====

details: in acetone, 313.15 K
parameter-measured: solubility (mole fraction)
Give the figure only, with no unit attached.

INPUT: Query: solubility (mole fraction); subject: CC(C)C[C@H](NC(=O)OCC1c2ccccc2-c2ccccc21)C(=O)O
OUTPUT: 0.117

====

settings: in n-butanol, 303.15 K
parameter-measured: solubility (mole fraction)
Give the figure only, with no unit attached.

INPUT: Query: solubility (mole fraction); subject: CC(C)C[C@H](NC(=O)OCC1c2ccccc2-c2ccccc21)C(=O)O
OUTPUT: 0.0354

====

conditions: in methyl acetate, 283.15 K
parameter-measured: solubility (mole fraction)
Give the figure only, with no unit attached.

INPUT: Query: solubility (mole fraction); subject: CC(C)C[C@H](NC(=O)OCC1c2ccccc2-c2ccccc21)C(=O)O
OUTPUT: 0.0246

====

conditions: in acetonitrile, 298.15 K
parameter-measured: solubility (mole fraction)
Give the figure only, with no unit attached.

INPUT: Query: solubility (mole fraction); subject: CC(C)C[C@H](NC(=O)OCC1c2ccccc2-c2ccccc21)C(=O)O
OUTPUT: 0.0055

====

settings: in methanol, 323.15 K
parameter-measured: solubility (mole fraction)
Give the figure only, with no unit attached.

INPUT: Query: solubility (mole fraction); subject: CC(C)C[C@H](NC(=O)OCC1c2ccccc2-c2ccccc21)C(=O)O
OUTPUT: 0.137

====

settings: in isopropanol, 308.15 K
parameter-measured: solubility (mole fraction)

INPUT: Query: solubility (mole fraction); subject: CC(C)C[C@H](NC(=O)OCC1c2ccccc2-c2ccccc21)C(=O)O
OUTPUT: 0.0441

====

conditions: in n-propanol, 303.15 K
parameter-measured: solubility (mole fraction)
Give the figure only, with no unit attached.

INPUT: Query: solubility (mole fraction); subject: CC(C)C[C@H](NC(=O)OCC1c2ccccc2-c2ccccc21)C(=O)O
OUTPUT: 0.0372

====

details: in acetone, 308.15 K
parameter-measured: solubility (mole fraction)

INPUT: Query: solubility (mole fraction); subject: CC(C)C[C@H](NC(=O)OCC1c2ccccc2-c2ccccc21)C(=O)O
OUTPUT: 0.108

====

details: in acetonitrile, 313.15 K
parameter-measured: solubility (mole fraction)
Give the figure only, with no unit attached.

INPUT: Query: solubility (mole fraction); subject: CC(C)C[C@H](NC(=O)OCC1c2ccccc2-c2ccccc21)C(=O)O
OUTPUT: 0.0104

====

settings: in n-propanol, 283.15 K
parameter-measured: solubility (mole fraction)
Give the figure only, with no unit attached.

INPUT: Query: solubility (mole fraction); subject: CC(C)C[C@H](NC(=O)OCC1c2ccccc2-c2ccccc21)C(=O)O
OUTPUT: 0.0218

====

conditions: in ethanol, 308.15 K
parameter-measured: solubility (mole fraction)
Give the figure only, with no unit attached.

INPUT: Query: solubility (mole fraction); subject: CC(C)C[C@H](NC(=O)OCC1c2ccccc2-c2ccccc21)C(=O)O
OUTPUT: 0.0522

====

conditions: in acetonitrile, 283.15 K
parameter-measured: solubility (mole fraction)

INPUT: Query: solubility (mole fraction); subject: CC(C)C[C@H](NC(=O)OCC1c2ccccc2-c2ccccc21)C(=O)O
OUTPUT: 0.00333

====

settings: in methyl acetate, 303.15 K
parameter-measured: solubility (mole fraction)
Give the figure only, with no unit attached.

INPUT: Query: solubility (mole fraction); subject: CC(C)C[C@H](NC(=O)OCC1c2ccccc2-c2ccccc21)C(=O)O
OUTPUT: 0.0428

====

conditions: in n-propanol, 318.15 K
parameter-measured: solubility (mole fraction)
Give the figure only, with no unit attached.

INPUT: Query: solubility (mole fraction); subject: CC(C)C[C@H](NC(=O)OCC1c2ccccc2-c2ccccc21)C(=O)O
OUTPUT: 0.0691

====

details: in isopropanol, 323.15 K
parameter-measured: solubility (mole fraction)

INPUT: Query: solubility (mole fraction); subject: CC(C)C[C@H](NC(=O)OCC1c2ccccc2-c2ccccc21)C(=O)O
OUTPUT: 0.0844

====

conditions: in ethanol, 303.15 K
parameter-measured: solubility (mole fraction)
Give the figure only, with no unit attached.

INPUT: Query: solubility (mole fraction); subject: CC(C)C[C@H](NC(=O)OCC1c2ccccc2-c2ccccc21)C(=O)O
OUTPUT: 0.0443

====

conditions: in acetonitrile, 323.15 K
parameter-measured: solubility (mole fraction)
Give the figure only, with no unit attached.

INPUT: Query: solubility (mole fraction); subject: CC(C)C[C@H](NC(=O)OCC1c2ccccc2-c2ccccc21)C(=O)O
OUTPUT: 0.0166

Attribution: BigSolDB 2.1
